Target: Carbonic anhydrase 1 (Homo sapiens)
Sequence (P00915 whole entry): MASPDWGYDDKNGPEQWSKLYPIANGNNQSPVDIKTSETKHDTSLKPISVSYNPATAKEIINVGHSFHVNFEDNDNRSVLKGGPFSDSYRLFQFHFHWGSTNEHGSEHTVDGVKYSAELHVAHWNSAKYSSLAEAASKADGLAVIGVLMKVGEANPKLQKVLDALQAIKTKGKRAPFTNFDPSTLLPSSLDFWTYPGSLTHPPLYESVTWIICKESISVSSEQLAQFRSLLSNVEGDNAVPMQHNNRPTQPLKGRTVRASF
Could you mark each record yes (1) if its Ki falls strictly under 10 µM, and no (0) if it equals or exceeds it?

stdin: Quick check: Ki of OB(O)c1ccc(Oc2ccccc2)cc1 under 10 µM?
stdout: yes (1)

stdin: Decide: Ki of Cc1ccc(B(O)O)cc1 strictly below 10 µM?
stdout: no (0)

stdin: For OB(O)c1ccc(Br)cc1 , is the recorded Ki below the cut-off of 10 µM?
stdout: no (0)

stdin: Just wondering, is Ki of COc1ccc(B(O)O)cc1 below 10 µM?
stdout: no (0)

stdin: Item OB(O)/C=C/Cc1ccccc1 : Ki beneath 10 µM, strictly?
stdout: yes (1)
